# ASSAY NAME: AUC (0 to infinity) in Wistar rat at 20 mg/kg, po by LC-MS/MS analysis
# Format: ADME, organism-based
# Parameters: dose 20 mg/kg, route oral, time infinity
# CONDITIONS: in vivo
PROPERTY NAME: AUC(0-inf) (ng·h/mL)
Your answer should be a plain number; it is taken to be in ng·h/mL.

Look at this compound and give its reported AUC(0-inf). `Cc1cc(C#N)cc(C)c1Oc1nc(NC2CCN(Cc3ccc(C(N)=O)cc3)CC2)nc2c1COC2` 1660

====

# ASSAY NAME: Selectivity ratio of CC50 for human MT4 cells to EC50 for HIV1 harboring reverse transcriptase Y188L mutant infected in human MT4 cells
# Assay type: toxicity, cell-based
# CONDITIONS: read-out: Ratio CC50/EC50
Entries and their selectivity ratio values follow.
Hey, just send me the number, nothing else.

Study these solved cases before continuing.
- ITEM SMILES: "Cc1cc(C#N)cc(C)c1Oc1nc(NC2CCN(Cc3ccc(S(N)(=O)=O)cc3)CC2)nc2c1COC2"
  selectivity ratio: 1810
- ITEM SMILES: "Cc1cc(C#N)cc(C)c1Oc1nc(NC2CCN(Cc3ccc(S(N)(=O)=O)cc3)CC2)nc2c1SCC2"
  selectivity ratio: 1640
- ITEM SMILES: "Cc1cc(C#N)cc(C)c1Oc1nc(NC2CCN(Cc3ccc(C(N)=O)cc3)CC2)nc2c1SCC2"
  selectivity ratio: 6590

Look at this compound and give its reported selectivity ratio. `Cc1cc(C#N)cc(C)c1Oc1nc(NC2CCN(Cc3ccc(S(C)(=O)=O)cc3)CC2)nc2c1COC2` 3940

Look at this compound and give its reported selectivity ratio. `Cc1cc(C#N)cc(C)c1Oc1nc(NC2CCN(Cc3ccncc3)CC2)nc2c1COC2` 4770

====

Entries and their selectivity ratio values follow.
# ASSAY NAME: Selectivity ratio of CC50 for human TZM-bl cells to EC50 for HIV1 NL4-3 infected in human TZM-bl cells
# Assay type: toxicity, cell-based
# CONDITIONS: read-out: Ratio CC50/EC50
Hey, just send me the number, nothing else.

Study these solved cases before continuing.
- COMPOUND: "Cc1cc(C#N)cc(C)c1Oc1nc(NC2CN(Cc3ccc(S(C)(=O)=O)cc3)C2)nc2ccsc12"
  RESULT VALUE: 1.1
- COMPOUND: "Cc1cc(C#N)cc(C)c1Oc1nc(N[C@H]2CCN(Cc3ccc(C(N)=O)cc3)C2)nc2ccsc12"
  RESULT VALUE: 4.5
- COMPOUND: "Cc1cc(C#N)cc(C)c1Oc1nc(N[C@@H]2CCN(Cc3ccc(S(C)(=O)=O)cc3)C2)nc2ccsc12"
  RESULT VALUE: 16

As a next step, examine the compound that follows.
Look at this compound and give its reported selectivity ratio. Cc1cc(C#N)cc(C)c1Oc1nc(NC2CCCN(Cc3ccc(S(C)(=O)=O)cc3)CC2)nc2ccsc12 (centres undefined) 22

====

Entries and their solubility values follow.
# ASSAY NAME: Aqueous solubility of the compound in FASSIF by HPLC analysis
# Assay type: physicochemical
# CONDITIONS: simulated gi fluid
Your answer should be a plain number; it is taken to be in µg/mL.

Study these solved cases before continuing.
- ITEM SMILES: "Cc1cc(C#N)cc(C)c1Oc1nc(NC2CCN(Cc3ccc(S(C)(=O)=O)cc3)CC2)nc2c1COC2"
  solubility [µg/mL]: 23.6
- ITEM SMILES: "Cc1cc(C#N)cc(C)c1Oc1nc(NC2CCN(Cc3ccc(S(N)(=O)=O)cc3)CC2)nc2ccsc12"
  solubility [µg/mL]: 1.24
- ITEM SMILES: "Cc1cc(C#N)cc(C)c1Oc1nc(Nc2ccc(C#N)cc2)nc(N)c1Br"
  solubility [µg/mL]: 13.2
- ITEM SMILES: "Cc1cc(C#N)cc(C)c1Oc1nc(NC2CCN(Cc3ccc(S(N)(=O)=O)cc3)CC2)nc2c1COC2"
  solubility [µg/mL]: 8.42
- ITEM SMILES: "Cc1cc(C#N)cc(C)c1Oc1nc(NC2CCN(Cc3ccncc3)CC2)nc2c1COC2"
  solubility [µg/mL]: 8.57

Look at this molecule and give its reported solubility. `Cc1cc(C#N)cc(C)c1Oc1nc(NC2CCN(Cc3ccc(C(N)=O)cc3)CC2)nc2c1COC2` 32.5

Look at this molecule and give its reported solubility. `Cc1cc(C#N)cc(C)c1Oc1nc(NC2CCN(Cc3ccc(S(N)(=O)=O)cc3)CC2)nc2c1SCC2` 10

====

# ASSAY NAME: Aqueous solubility of the compound at pH at 2 by HPLC analysis
# Assay type: physicochemical
# CONDITIONS: buffer, pH 2
PROPERTY NAME: solubility (µg/mL)
Your answer should be a plain number; it is taken to be in µg/mL.

- ITEM SMILES: "Cc1cc(C#N)cc(C)c1Oc1nc(NC2CCN(Cc3ccc(S(N)(=O)=O)cc3)CC2)nc2c1COC2"
  solubility / µg/mL: 174
- ITEM SMILES: "Cc1cc(C#N)cc(C)c1Oc1nc(NC2CCN(Cc3ccc(S(C)(=O)=O)cc3)CC2)nc2c1COC2"
  solubility / µg/mL: 164
- ITEM SMILES: "Cc1cc(C#N)cc(C)c1Oc1nc(NC2CCN(Cc3ccc(S(N)(=O)=O)cc3)CC2)nc2c1SCC2"
  solubility / µg/mL: 192
- ITEM SMILES: "Cc1cc(C#N)cc(C)c1Oc1nc(NC2CCN(Cc3ccncc3)CC2)nc2c1COC2"
  solubility / µg/mL: 223
- ITEM SMILES: "Cc1cc(C#N)cc(C)c1Oc1nc(NC2CCN(Cc3ccc(C(N)=O)cc3)CC2)nc2c1COC2"
  solubility / µg/mL: 198

Look at this compound and give its reported solubility. `Cc1cc(C#N)cc(C)c1Oc1nc(NC2CCN(Cc3ccc(S(N)(=O)=O)cc3)CC2)nc2ccsc12` 190

====

# ASSAY NAME: AUCt in Wistar rat at 20 mg/kg, po by LC-MS/MS analysis
# Type: ADME, organism-based
# CONDITIONS: in vivo
PROPERTY NAME: AUC(0-t) (ng·h/mL)
Your answer should be a plain number; it is taken to be in ng·h/mL.

Look at this compound and give its reported AUC(0-t). `Cc1cc(C#N)cc(C)c1Oc1nc(NC2CCN(Cc3ccc(C(N)=O)cc3)CC2)nc2c1COC2` 1550

====

# ASSAY TARGET: Voltage-gated inwardly rectifying potassium channel KCNH2 (Homo sapiens, UniProt Q12809)
# Sequence (Q12809 whole entry): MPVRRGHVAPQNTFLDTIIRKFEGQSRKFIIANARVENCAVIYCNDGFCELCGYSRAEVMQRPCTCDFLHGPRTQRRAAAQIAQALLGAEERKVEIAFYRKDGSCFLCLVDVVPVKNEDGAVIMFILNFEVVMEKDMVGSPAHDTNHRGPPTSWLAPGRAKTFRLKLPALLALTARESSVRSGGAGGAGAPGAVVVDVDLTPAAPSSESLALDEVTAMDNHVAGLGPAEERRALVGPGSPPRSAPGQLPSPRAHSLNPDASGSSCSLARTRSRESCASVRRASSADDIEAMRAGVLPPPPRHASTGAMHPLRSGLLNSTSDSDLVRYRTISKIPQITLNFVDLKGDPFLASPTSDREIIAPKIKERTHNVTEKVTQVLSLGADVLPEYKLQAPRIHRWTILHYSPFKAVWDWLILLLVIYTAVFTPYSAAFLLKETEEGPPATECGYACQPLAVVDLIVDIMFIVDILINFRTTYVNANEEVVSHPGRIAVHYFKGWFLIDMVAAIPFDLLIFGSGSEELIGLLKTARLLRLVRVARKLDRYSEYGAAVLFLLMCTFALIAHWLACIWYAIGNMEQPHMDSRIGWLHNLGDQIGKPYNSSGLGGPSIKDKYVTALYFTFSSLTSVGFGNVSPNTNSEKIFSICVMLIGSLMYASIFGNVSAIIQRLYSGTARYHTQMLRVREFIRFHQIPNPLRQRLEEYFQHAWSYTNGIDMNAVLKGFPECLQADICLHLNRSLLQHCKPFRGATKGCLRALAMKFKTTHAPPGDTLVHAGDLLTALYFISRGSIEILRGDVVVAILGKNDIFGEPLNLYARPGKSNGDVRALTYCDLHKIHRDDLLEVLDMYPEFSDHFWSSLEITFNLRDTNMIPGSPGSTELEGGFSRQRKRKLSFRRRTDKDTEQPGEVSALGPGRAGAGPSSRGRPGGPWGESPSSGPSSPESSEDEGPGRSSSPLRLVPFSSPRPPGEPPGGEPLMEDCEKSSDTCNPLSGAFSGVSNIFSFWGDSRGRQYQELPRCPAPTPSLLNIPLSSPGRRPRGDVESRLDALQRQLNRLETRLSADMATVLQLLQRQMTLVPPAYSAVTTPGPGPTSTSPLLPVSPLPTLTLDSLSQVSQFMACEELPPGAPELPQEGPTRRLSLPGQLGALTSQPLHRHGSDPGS
# ASSAY NAME: Inhibition of human ERG expressed in HEK293 cells at -80 mV holding potential by manual patch clamp assay
PROPERTY NAME: IC50 (nM)
Your answer should be a plain number; it is taken to be in nM.

Look at this molecule and give its reported IC50. `Cc1cc(C#N)cc(C)c1Oc1nc(NC2CCN(Cc3ccc(C(N)=O)cc3)CC2)nc2c1COC2` 830

====

Entries and their selectivity ratio values follow.
# ASSAY NAME: Selectivity ratio of CC50 for human MT4 cells to EC50 for HIV1 RES056 infected in human MT4 cells
# Format: toxicity, cell-based
# CONDITIONS: read-out: Ratio CC50/EC50
Hey, just send me the number, nothing else.

- ITEM SMILES: "Cc1cc(C#N)cc(C)c1Oc1nc(NC2CCN(Cc3ccc([N+](=O)[O-])cc3)CC2)nc2c1CSC2"
  RESULT VALUE: 24
- ITEM SMILES: "Cc1cc(C#N)cc(C)c1Oc1nc(NC2CCN(Cc3ccc(S(C)(=O)=O)cc3)CC2)nc2c1SCC2"
  RESULT VALUE: 257
- ITEM SMILES: "Cc1cc(C#N)cc(C)c1Oc1nc(NC2CCN(Cc3ccc(S(C)(=O)=O)cc3)CC2)nc2c1CCC2"
  RESULT VALUE: 40

Look at this molecule and give its reported selectivity ratio. `Cc1cc(C#N)cc(C)c1Oc1nc(NC2CCN(Cc3ccncc3)CC2)nc2c1CCCC2` 440

Look at this molecule and give its reported selectivity ratio. `Cc1cc(C#N)cc(C)c1Oc1nc(NC2CCN(Cc3ccc(C(N)=O)cc3)CC2)nc2c1SCC2` 3800

Look at this molecule and give its reported selectivity ratio. `Cc1cc(C#N)cc(C)c1Oc1nc(NC2CCN(Cc3cccc(C(N)=O)c3)CC2)nc2c1SCCC2` 5.5

====

# Tested on: MT4
# ASSAY NAME: Cytotoxicity against human MT4 cells after 5 days by MTT assay
# Assay type: cell-based
# CONDITIONS: mt4, 120 h
Entries and their CC50 values follow.

- ITEM SMILES: "Cc1cc(C#N)cc(C)c1Oc1nc(NC2CCN(Cc3ccc(C(N)=O)cc3)CC2)nc2c1COC2"
  CC50: "> 250 µM"

Look at this molecule and give its reported CC50. `Cc1cc(C#N)cc(C)c1Oc1nc(NC2CCN(Cc3ccc(S(C)(=O)=O)cc3)CC2)nc2c1COC2` 31.3 µM

Look at this molecule and give its reported CC50. `Cc1cc(C#N)cc(C)c1Oc1nc(NC2CCN(Cc3ccc(NS(C)(=O)=O)cc3)CC2)nc2c1CSC2` > 257 µM

Look at this molecule and give its reported CC50. `Cc1cc(C#N)cc(C)c1Oc1nc(NC2CCN(Cc3ccc(C(N)=O)cc3)CC2)nc2c1SCCC2` ≥ 44.3 µM
